- Experimental target: T1, human Fibroblast Activation Protein (FAP), soluble antigen (human, UniProt Q12884 26-760, biotinylated when immobilized on streptavidin sensors)
- T1 construct: also called hFAP; biotinylated FAP
- T1 sequence (Q12884 26-760 limits assumed): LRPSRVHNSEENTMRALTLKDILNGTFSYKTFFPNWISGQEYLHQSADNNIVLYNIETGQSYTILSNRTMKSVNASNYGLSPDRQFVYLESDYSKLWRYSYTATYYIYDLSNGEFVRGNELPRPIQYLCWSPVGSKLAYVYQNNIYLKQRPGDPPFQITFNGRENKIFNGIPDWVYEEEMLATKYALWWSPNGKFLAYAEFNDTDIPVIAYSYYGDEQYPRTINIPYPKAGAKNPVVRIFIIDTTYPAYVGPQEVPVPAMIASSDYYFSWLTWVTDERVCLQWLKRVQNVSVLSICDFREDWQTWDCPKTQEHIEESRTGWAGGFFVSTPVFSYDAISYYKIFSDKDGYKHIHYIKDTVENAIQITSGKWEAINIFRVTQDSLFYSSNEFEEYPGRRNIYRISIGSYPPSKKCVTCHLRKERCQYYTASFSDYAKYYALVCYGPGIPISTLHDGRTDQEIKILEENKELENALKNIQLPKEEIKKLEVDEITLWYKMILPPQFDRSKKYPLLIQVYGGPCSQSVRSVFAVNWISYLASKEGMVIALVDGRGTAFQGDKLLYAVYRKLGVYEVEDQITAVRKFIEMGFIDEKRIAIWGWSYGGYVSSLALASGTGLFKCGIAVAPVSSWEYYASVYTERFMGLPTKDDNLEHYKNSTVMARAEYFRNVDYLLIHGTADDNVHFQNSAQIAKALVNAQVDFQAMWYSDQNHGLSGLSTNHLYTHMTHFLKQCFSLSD
- Procedure details: Affinity (nM), Table 13B
Measured endpoint: pKd
Remember the convention: pKd equals -log10 of concentration in molar.

Some binders with known pKd results, for comparison:
>  <Binder>
D029-HV1LV1 (bispecific antibody, V domains shown, also called D029 Rev1/S55L; D029HVILV1 (so in the source)) VH: EVQLVESGGGLVQPGGSLRLSCAASGFTFTWSFMSWVRQAPGKGLEWVSWIGPSGLYTDYADSVKGRFTISRDNSKNTLYLQMNSLRAEDTAVYYCARSQYGRYYSPDYYFDYWGQGTLVTVSS VL: DIQMTQSPSSLSASVGDRVTITCRASQALGFYLNWYQQKPGKAPKLLIYAASSLSSGVPSRFSGSGSGTDFTLTISSLQPEDFATYYCQQGRTPPLTFGQGTKVEIKR

>  <Measured endpoint>
pKd

>  <Recorded measurement>
8.74

$$$$
>  <Binder>
D029HV4LV2 (bispecific antibody, V domains shown, also called Rev1-Q27G/P94Y/L96F:H1V9) VH: EVQLVESGGGLVQPGGSLRLSCAASGFTFSRFFMSWVRQAPGKGLEWVSWIGPSGLYTDYADSVKGRFTISRDNSKNTLYLQMNSLRAEDTAVYYCARSQYGRYYSPDYYFDYWGQGTLVTVSS VL: DIQMTQSPSSLSASVGDRVTITCRASGALGFYLNWYQQKPGKAPKLLIYAASSLSSGVPSRFSGSGSGTDFTLTISSLQPEDFATYYCQQGRTYPFTFGQGTKVEIKR

>  <Measured endpoint>
pKd

>  <Recorded measurement>
9.29

$$$$

Turning now to a further binder:
In: Assign pKd to the following record: D029 HV5LV1 (bispecific antibody, V domains shown, also called Rev1/S55L:T30R:S32A) VH: EVQLVESGGGLVQPGGSLRLSCAASGFTFRWAFMSWVRQAPGKGLEWVSWIGPSGLYTDYADSVKGRFTISRDNSKNTLYLQMNSLRAEDTAVYYCARSQYGRYYSPDYYFDYWGQGTLVTVSS VL: DIQMTQSPSSLSASVGDRVTITCRASQALGFYLNWYQQKPGKAPKLLIYAASSLSSGVPSRFSGSGSGTDFTLTISSLQPEDFATYYCQQGRTPPLTFGQGTKVEIKR
Out: 8.44
